Tested on: WEE1
Details: concentration: 1 μM,replicates: in singlicate; n = 1;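 note: KINOMEscan kinase panel screen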
# %Inh values compiled below
Unit % implied. Number only.

Request the reported %Inh associated with COC(=O)c1cccc(NC(=O)NC2CCN(c3ccnc(NCc4ccc(F)cc4)n3)CC2)c1
8

Request the reported %Inh associated with COC(=O)c1cccc(NC(=O)NC2CCN(c3ccnc(Nc4cc(OC)c(OC)c(OC)c4)n3)C2)c1 (stereo not drawn)
8

***
Request the reported %Inh associated with COC(=O)Nc1nc2cc(Oc3ccc(NC(=O)Nc4cc(C(F)(F)F)ccc4Cl)cc3)ccc2[nH]1.Cl
8

====

# %Inh values compiled below
Tested on: PIK3CG
Settings: concentration: 1 μM,replicates: in singlicate; n = 1
Unit % implied. Number only.

Query the reported %Inh for PIK3CG; item: Cn1ccc2ncnc(Oc3ccc(NC(=O)Nc4ccnc(C(F)(F)F)c4)c(Cl)c3)c21
0

Query the reported %Inh for PIK3CG; item: O=C1NCCc2[nH]c(-c3ccncc3)cc21
12

Query the reported %Inh for PIK3CG; item: Cn1ccc2ncnc(Oc3ccc(NC(=O)Nc4cccc(C(F)(F)F)c4)c(F)c3)c21
0

***
Query the reported %Inh for PIK3CG; item: CCNCC(Cc1ccccc1)NC(=O)c1cc(Br)c(-c2ccnc3[nH]ccc23)s1.Cl.Cl (stereo not shown) [GSK1383280]
0

====

Test system: ERBB2
Conditions: concentration: 1 μM,replicates: in singlicate; n = 1
readout: %Inh (%)
Unit % implied. Number only.

Query the reported %Inh for ERBB2; item: Cc1ccc(C(=O)Nc2ccc(Oc3ccc4nc(NC(=O)C5CC5)cn4c3)c(F)c2)c(=O)n1-c1ccccc1
30

Query the reported %Inh for ERBB2; item: O=C(NOCC1CC1)c1cc(Br)c(F)c(F)c1Nc1ccc(I)cc1Cl
44

Query the reported %Inh for ERBB2; item: CC(C)c1nc(-c2cccc(NS(=O)(=O)c3ccccc3)c2)c(-c2ccnc(Nc3ccc4c(c3)CN(C)CC4)n2)s1 [GSK1649598]
86

Query the reported %Inh for ERBB2; item: Cc1cccc2c(-c3ccncc3)c(-c3ccc(F)cc3)nn12.Cl [GW461487]
1

Query the reported %Inh for ERBB2; item: COC(=O)c1cccc(NC(=O)NC2CCN(c3ccnc(Nc4cc(OC)c(OC)c(OC)c4)n3)C2)c1 (centres unmarked) [GSK1379767]
51

***
Query the reported %Inh for ERBB2; item: CCn1c(-c2nonc2N)nc2cncc(CNC3CCNCC3)c21.Cl [SB-747651]
21

Query the reported %Inh for ERBB2; item: c1ccc(Oc2ccc(Nc3ccnc4ccc(-c5ccccn5)cc34)cc2)cc1 [GW407034]
90.3

Query the reported %Inh for ERBB2; item: CCN1CCN(CCCC(=O)Nc2n[nH]c3nc(-c4ccc(O)cc4)c(Br)cc23)CC1 [SB-731579]
24

Query the reported %Inh for ERBB2; item: COC(=O)c1cccc(NC(=O)NC2CCN(c3ccnc(NCc4ccc(F)cc4)n3)CC2)c1 [GSK1379860]
21

Query the reported %Inh for ERBB2; item: O=C(Nc1ccccc1)c1cccc(Oc2ccc3nccn3n2)c1
0

Query the reported %Inh for ERBB2; item: Cn1ccc2ncnc(Oc3ccc(NC(=O)Nc4cncc(C(F)(F)F)c4)c(Cl)c3)c21
24

====

Test system: SIK2
Details: concentration: 1 μM,replicates: in singlicate; n = 1
readout: %Inh (%)
Unit % implied. Number only.

// solved cases for %Inh follow
Request the reported %Inh associated with CCCC(=O)Nc1n[nH]c2ncccc12
0

Request the reported %Inh associated with Cc1ccc(C(=O)Nc2ccc(Oc3ccc4nc(NC(=O)C5CC5)cn4c3)c(F)c2)c(=O)n1-c1ccccc1
19

Request the reported %Inh associated with CSc1nccc(-c2c(-c3ccc(F)cc3)ncn2CCCN2CCOCC2)n1.Cl
0

Request the reported %Inh associated with CNC(=O)c1ccccc1Nc1nc(Nc2cccc(CS(C)(=O)=O)c2)ncc1C.O=CO
95

Request the reported %Inh associated with CN(c1ccc2c(c1)nc(NCc1ccc(F)cc1)n2C)c1ccnc(Nc2ccc(CS(C)(=O)=O)cc2)n1.Cl
39

***
Request the reported %Inh associated with C[C@@H]1CNc2c(sc3ccc4nc(-c5ccc(O)cc5)ccc4c23)C(=O)N1
16

Request the reported %Inh associated with Cn1ccc2ncnc(Oc3ccc(NC(=O)Nc4cc(C(C)(C)C)on4)c(Cl)c3)c21
4

Request the reported %Inh associated with CCn1c(-c2nonc2N)nc2cncc(Br)c21
7

Request the reported %Inh associated with NC(=O)Nc1sc(-c2ccc(F)cc2)cc1C(N)=O
16

Request the reported %Inh associated with COc1cc2nccc(Nc3ccc(Oc4ccccc4)cc3)c2cc1OC.Cl
0

Request the reported %Inh associated with Cc1ccn2nc(-c3ccc(F)cc3)c(-c3ccncc3)c2c1.Cl
0

Request the reported %Inh associated with CS(=O)(=O)Nc1ccc(-c2ccnc3[nH]ccc23)cc1
39

Request the reported %Inh associated with Cn1ccc2ncnc(Oc3ccc(NC(=O)Nc4ccnc(C(F)(F)F)c4)c(Cl)c3)c21
8

Request the reported %Inh associated with FC(F)(F)c1cc(Br)cc(Nc2nccc(-c3cnn4ncccc34)n2)c1
0

Request the reported %Inh associated with CCn1c(-c2nonc2N)nc2cncc(CNC3CCNCC3)c21.Cl
0

Request the reported %Inh associated with CC(=O)Nc1nc2cnc(Nc3cc(NC(=O)c4cccc(CC(C)(C)C#N)c4)ccc3C)nc2s1
0

Request the reported %Inh associated with COc1cccc(C2=C(Nc3cccc(Cl)c3)C(=O)NC2=O)c1
99.9

Request the reported %Inh associated with O=c1[nH]cc(-c2ccc(O)cc2)c2sc(-c3ccncc3)cc12
0

Request the reported %Inh associated with CN(c1ccccc1CNc1nc(Nc2ccc3c(c2)CC(=O)N3)ncc1C(F)(F)F)S(C)(=O)=O
40

Request the reported %Inh associated with O=C(Nc1cccc(C(F)(F)F)c1)c1cccc(Oc2ccc3nccn3n2)c1
0

====

System: PRKCQ
Settings: concentration: 1 μM,replicates: in singlicate; n = 1
readout: %Inh

// solved cases for %Inh follow
Request the reported %Inh associated with Cc1n[nH]c2cc(Nc3ccnc(Nc4cccc(CN5CCOCC5)c4)n3)ccc12
0%

Request the reported %Inh associated with C[C@@H]1CCN(C(=O)N2CCCC2)C[C@@H]1N(C)c1ncnc2[nH]ccc12
0%

***
Request the reported %Inh associated with Cc1nnc(-c2ccc3occ(-c4ccc(S(C)=O)cc4)c3n2)o1 (centres unmarked)
0%

Request the reported %Inh associated with C[C@@H]1CNc2c(sc3ccc4nc(-c5ccncc5)ccc4c23)C(=O)N1
8%

Request the reported %Inh associated with N#Cc1cccc(C(=O)NC2CCN(c3ccnc(Nc4ccc(F)cc4)n3)C2)c1 (centres unmarked)
0%

Request the reported %Inh associated with Cc1cccc2c(-c3ccncc3)c(-c3ccc(F)cc3)nn12.Cl
0%

Request the reported %Inh associated with COC(=O)Nc1nc2cc(Oc3ccc(NC(=O)Nc4cc(C(F)(F)F)ccc4Cl)cc3)ccc2[nH]1.Cl
6%

Request the reported %Inh associated with CC(C)S(=O)(=O)N1CCN(Cc2ccc3c(c2)nc(NC(=O)c2ccsc2)n3C[C@H](O)c2ccccc2)CC1
12%

====

Test system: DYRK1B
Details: concentration: 1 μM,replicates: in singlicate; n = 1
Param threshold (30%) applies to %Inh; output YES when value >= threshold, NO when value < threshold.

Please indicate if the recorded %Inh for FC(F)(F)c1cc(Br)cc(Nc2nccc(-c3cnn4ncccc34)n2)c1 meets or exceeds 30%.
YES

====

System: MYO3A
Conditions: concentration: 1 μM,replicates: in singlicate; n = 1
# %Inh values compiled below
Unit % implied. Number only.

Request the reported %Inh associated with COc1cccc(OC)c1C(=O)Nc1cccc(-c2nn3ccccc3c2-c2ccnc(Nc3cccc(F)c3)n2)c1
28

Request the reported %Inh associated with Cc1ccc(C(=O)Nc2ccc(Oc3ccc4nc(NC(=O)C5CC5)cn4c3)c(F)c2)c(=O)n1-c1ccccc1
0

Request the reported %Inh associated with O=C1NCCc2[nH]c(-c3ccncc3)cc21
7

Request the reported %Inh associated with Cn1ccc2ncnc(Oc3ccc(NC(=O)Nc4ccnc(C(F)(F)F)c4)c(Cl)c3)c21
0

Request the reported %Inh associated with O=C(NCC1CC1)c1ccc(-c2cc(C(=O)NC3CC3)ccc2F)cc1
0

Request the reported %Inh associated with Cc1n[nH]c2cc(Nc3ccnc(Nc4cccc(CN5CCOCC5)c4)n3)ccc12
22

====

Test system: PKAC-alpha
Construct: gene PRKACA
Conditions: concentration: 1 μM,replicates: in singlicate; n = 1
readout: %Inh

Request the reported %Inh associated with C[C@@H]1CCN(C(=O)N2CCCC2)C[C@@H]1N(C)c1ncnc2[nH]ccc12
0%

Request the reported %Inh associated with N#Cc1cccc(C(=O)NC2CCN(c3ccnc(Nc4ccc(F)cc4)n3)C2)c1 (stereo not shown)
9%

Request the reported %Inh associated with Cn1ccc2ncnc(Oc3ccc(NC(=O)Nc4ccnc(C(F)(F)F)c4)c(Cl)c3)c21
0%

Request the reported %Inh associated with O=C(Nc1ccccc1)c1cccc(Oc2ccc3nccn3n2)c1
5%

Request the reported %Inh associated with CSc1nccc(-c2c(-c3ccc(F)cc3)ncn2CCCN2CCOCC2)n1.Cl
14%

Request the reported %Inh associated with CC(=O)Nc1nc2cnc(Nc3cc(NC(=O)c4cccc(CC(C)(C)C#N)c4)ccc3C)nc2s1
13%

Request the reported %Inh associated with Cc1ccc(CC(=O)N2CCc3cc(-c4cn(C)c5ncnc(N)c45)ccc32)cc1
0%

Request the reported %Inh associated with CC(=O)Nc1ccc(-c2cc3ncnc(SCC(=O)O)c3s2)cc1
0%

Request the reported %Inh associated with O=C(NOCC1CC1)c1cc(Br)c(F)c(F)c1Nc1ccc(I)cc1Cl
9%

Request the reported %Inh associated with Cc1n[nH]c2cc(Nc3ccnc(Nc4cccc(CN5CCOCC5)c4)n3)ccc12
0%

Request the reported %Inh associated with CCCC(=O)Nc1n[nH]c2ncccc12
0%

Request the reported %Inh associated with Cc1ccc2c(-c3ccnc(Nc4ccc(C(F)(F)F)cc4)n3)cnn2n1
14%
